# assayMethodText: wn = mass fraction of the nth substance listed
# testSettings: 310 K; 101.3 kPa; Liquid; Concentric cylinders viscometry; w1 = 0.1
Numbers after ± are expanded uncertainties.
The compounds listed here are annotated with their viscosity.
measurementName: viscosity

• O.O.O.O.O.OC[C@H]1O[C@H](OC[C@H]2O[C@H](O[C@]3(CO)O[C@H](CO)[C@@H](O)[C@@H]3O)[C@H](O)[C@@H](O)[C@@H]2O)[C@H](O)[C@@H](O)[C@H]1O [D-raffinose, pentahydrate] + O = 1.22 ± 0.25 mPa·s
• O=C(CO)[C@@H](O)[C@H](O)[C@@H](CO)O[C@H]1O[C@H](CO)[C@@H](O)[C@H](O)[C@H]1O [leucrose] + O = 1.05 ± 0.21 mPa·s
• OC[C@@H](O)[C@H](O)[C@@H](O)CO [xylitol] + O = 1.03 ± 0.21 mPa·s
• OC[C@@H](O)[C@@H](O)[C@H](O)[C@@H](O)CO [D-sorbitol] + O = 1.02 ± 0.21 mPa·s
